So I've got a bunch of molecules here, and I need their cytotoxicity at 10 µM values.
Assay: Toxicity liver stage against HepG2, at 10uM
Assay type: cell-based
Set-up: test concentration 10 uM, cell line HepG2-A16-CD81EGFP
Conditions: human, HepG2-A16-CD81EGFP cells; read-out: INHIBITION
Numbers only; they are read as %.

What value of cytotoxicity at 10 µM has been reported for the following molecule? Cc1ncc(CNC2CCCN(Cc3noc(C4CC4)n3)C2)s1 (configuration not stated)
-7.7

Lookup `Cc1ccc(C(=O)NCCCNS(C)(=O)=O)c(=O)[nH]1`
-15.3

Same lookup for `Cc1cnc(C(=O)N2CCC3(CC2)C(=O)NCCN3CC(C)C)cn1` , please.
8.52

Cc1ccc(-c2nc(CN(C)C3CCS(=O)(=O)C3)cs2)o1 (configuration not stated) ?
-8.05

Then this molecule: `c1cc(CNCc2cccc3c2OCCO3)cc(Cn2cncn2)c1`
-1.54

And the next one, CCC(C)NC(=O)c1ccn(COc2ccccc2Cl)n1 (configuration not stated) ?
5.75

Also check `O=C(C1CC1)N1CCC(c2nc(-c3ccccc3)n[nH]2)CC1`
-4.15

Next: Cc1ccc(C2CN(CCS(C)(=O)=O)CCO2)c(C)c1 (configuration not stated)
3.03

What would you report for COc1ccc2cc(C(=O)N3CCCC3Cn3cc(C)cn3)[nH]c2c1 (configuration not stated) ?
-0.743

Thanks! And `O=C(CCNC(=O)c1ccoc1)Nc1c(F)cccc1F` ?
1.35

Can you check Cn1c(CO)cnc1SC(C(N)=O)c1ccccc1 (configuration not stated) next?
-48.8

Consider next the molecule Cc1ccc(Nc2nccc(C3CCN(CC(N)=O)C3)n2)nc1 (configuration not stated) in the same way.
-16.7

Input `COc1ccc(CN2CCO[C@@H]3C[C@@H](C(=O)NC(C)C)C[C@H]32)cc1`
8.31

Now consider CCC12CN3CC(C)(CN(C1)C3c1[nH]c(=O)[nH]c(=O)c1C)C2=O (configuration not stated) .
6.35

Another: `O=C1NCCN1C1CCN(Cc2nc(-c3ccccc3)no2)CC1`
30.3

What do you get for Cc1ncc(CNC(=O)N(C)Cc2ccc([S+](C)[O-])cc2)s1 (configuration not stated) ?
9.35

Okay, and `Cc1ccc(Cl)c(NC(=O)c2cccc(CN3CC[C@H](O)C3)c2)c1` ?
-11.9

Now try `O=C(NCc1ccc(-n2cncn2)nc1)c1ccc2c(c1)CCC2` .
-16.5

Again, but for `CC(C)Cc1noc(CN(C)C[C@]2(O)CCCN3CCCC[C@@H]32)n1`
-2.36

Entry `CC(=O)c1ccc(N2CCC3(CCC(=O)N(CCCO)C3)CC2)nc1` please
4.81

Now try `COc1cccc2ccn(CC(=O)NCCC(C)C)c12` .
-43.3

Entry COc1ccc(CNCC2CN(C3CC3)CCO2)cc1F (configuration not stated) please
-12.4

Next molecule: `COc1cccc(Cn2cc(N3C(=O)[C@H]4CCCC[C@H]4C3=O)cn2)c1`
-11.9

Continue with `Cc1nn(C)cc1CN(C)C(=O)c1ccncc1`
-5.51

Then what about the molecule CC(CC(=O)N1CCCN(Cc2cscn2)CC1)n1cccc1 (configuration not stated) ?
-8.01

CC(=O)c1ccc(C(=O)N2CCCCC2c2nc[nH]n2)cc1 (configuration not stated) , same question.
-5.3

Could you do the same for `CCN(CC(=O)NCc1nc(C2CC2)no1)Cc1ccc(Cl)cc1` , please?
-2.29

Subsequent entry: CN1CCOC(CNCc2coc(-c3cccc(Cl)c3)n2)C1 (configuration not stated)
-15.9

Could you do the same for COCCn1cc2c(n1)C(CNCc1nccs1)OCC2 (configuration not stated) , please?
-0.726

One more molecule: CC(NC(=O)Nc1cccnc1N1CCOCC1)c1ccncc1 (configuration not stated)
5.28

Thanks! And `Cc1noc([C@]23COC[C@H]2CN(C(=O)C2CCOCC2)C3)n1` ?
9.46

# iterate: `Cc1nc(CNC(=O)NCc2ccc(OCC3CC3)nc2)cs1`
5.07

Next entry: `CC(C)c1nc(-c2ccnc(N3CCNCC3)n2)no1`
1.01

Now the same for `COc1c(C(N)=O)cn(C)c1-c1nc2cc(NC(C)=O)ccc2n1C`
-46.5

Same again, this time with `O=C(Nc1ccccn1)c1nc(N2CCCC2)ncc1Cl`
-8.77

Next record, please: `CC(C)c1ncc2c(n1)CN(Cc1cccc(C#N)c1)CC2`
-9.03

// repeat for `Cc1cc(CN(C)C(=O)c2ccc(F)cc2F)no1` and report
-6.47

Similarly, `O=C(NC1CC1)N1C[C@H]2CN(c3ccccc3)C(=O)[C@H]2C1` ?
-1.13

Same thing, different molecule: CCN(CC)C(=O)C1CCCN(CC(=O)Nc2c(C)nn(CC)c2C)C1 (configuration not stated)
2.13

Likewise for `c1csc(CN2CCO[C@H]3[C@H](OCCN4CCCC4)CC[C@@H]32)n1` ?
-7.32

Queued: `CS(=O)(=O)CCOCCNc1ccc2ccc(F)cc2n1`
3.55

Consider next the molecule `COCC(=O)Nc1ccc([C@@H](O)[C@H]2COCC(=O)N2CC(C)C)cc1` in the same way.
17.6

Same question, `O=S(=O)(Cc1ccc(F)cc1)NCc1nnc2n1CCC2` this time
3.82

Cool, now CN(CC(=O)N1CCOCC(CO)C1)Cc1ccc(F)cc1 (configuration not stated)
-2.82

// next record CCC(=O)N1CCC2(CC1)CC(CC(=O)NC1CC1)c1ccccc1O2 (configuration not stated)
2.64

Same read-out for CC(C)Oc1ncccc1CNC(=O)C1CCCN(C(=O)C2CC2)C1 (configuration not stated) ?
-8.57

Same for CC(C)N1CCOCC2(CCCN(C(=O)c3cn(C)cn3)C2)C1 (configuration not stated)
1.88
